Data credit: patent US20160083466A1

- target.or.test.system: T1, human IL-25 expressed with a C-terminal myc-myc-hexahistidine tag (human)
- T1 construct: also called human IL-25-MMH; hIL-25-MMH
- T1 chain: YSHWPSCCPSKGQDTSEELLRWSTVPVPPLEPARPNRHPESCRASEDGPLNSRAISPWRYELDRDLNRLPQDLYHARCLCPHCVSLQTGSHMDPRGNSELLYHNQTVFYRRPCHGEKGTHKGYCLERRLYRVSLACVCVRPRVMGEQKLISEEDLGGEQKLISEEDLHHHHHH
- method.summary: SPR Biacore, captured mAb, 37°C

binder	units.label	100 nM Human IL-25-MMH Bound (RU)
H4H10863P (antibody, human IgG4, V domains shown) VH: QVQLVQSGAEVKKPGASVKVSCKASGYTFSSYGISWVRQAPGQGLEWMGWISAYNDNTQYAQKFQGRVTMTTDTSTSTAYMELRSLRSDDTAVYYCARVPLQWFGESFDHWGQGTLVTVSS VL: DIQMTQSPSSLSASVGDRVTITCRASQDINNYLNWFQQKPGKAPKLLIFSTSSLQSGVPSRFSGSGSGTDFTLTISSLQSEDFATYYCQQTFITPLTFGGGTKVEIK	RU	46
H4H10883P (antibody, human IgG4, V domains shown) VH: QVQLQESGPGLVKSSETLSLTCTVSGGSISSYYWSWIRQPPGKGLEWIGFIYYSGSTNYNPSLKSRVTFSVDTSKNHFSLKLNSVTATDTAVYYCARHYFDSGTYELGPFDYWGQGTLVTVSS VL: DIVMTQSPDSLAVSLGERATINCKSSQNILLTSSNKNYLTWYQQKPGQPPKLLIYWASIRESGVPDRFSGSGSGTDFTLTISSLQAEDVALYFCQQYYITPFTFGPGTKVDIK	RU	74
H4H10901P (antibody, human IgG4, V domains shown) VH: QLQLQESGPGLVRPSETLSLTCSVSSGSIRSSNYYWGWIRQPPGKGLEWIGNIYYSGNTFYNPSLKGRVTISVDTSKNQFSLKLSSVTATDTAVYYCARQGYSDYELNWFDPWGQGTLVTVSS VL: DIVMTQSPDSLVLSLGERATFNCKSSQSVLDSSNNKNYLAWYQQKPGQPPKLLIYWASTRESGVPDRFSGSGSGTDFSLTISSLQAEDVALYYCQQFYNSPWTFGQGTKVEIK	RU	65
H4H10907P (antibody, human IgG4, V domains shown) VH: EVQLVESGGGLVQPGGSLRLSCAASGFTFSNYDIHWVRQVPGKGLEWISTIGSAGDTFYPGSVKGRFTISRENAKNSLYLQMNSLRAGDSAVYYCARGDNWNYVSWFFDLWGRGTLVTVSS VL: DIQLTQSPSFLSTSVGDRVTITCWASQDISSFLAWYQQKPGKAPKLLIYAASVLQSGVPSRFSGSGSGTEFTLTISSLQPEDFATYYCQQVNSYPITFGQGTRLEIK	RU	47
